System under test: T1, Recombinant extracellular domain of human FOLR1 (Novoprotein, Cat#: C784) (human, UniProt P15328 25-233, limits assumed)
T1 construct: Bought reagent; also called recombinant FOLR1; immobilized FOLR1 extracellular domain
T1 sequence (P15328 25-233 limits assumed): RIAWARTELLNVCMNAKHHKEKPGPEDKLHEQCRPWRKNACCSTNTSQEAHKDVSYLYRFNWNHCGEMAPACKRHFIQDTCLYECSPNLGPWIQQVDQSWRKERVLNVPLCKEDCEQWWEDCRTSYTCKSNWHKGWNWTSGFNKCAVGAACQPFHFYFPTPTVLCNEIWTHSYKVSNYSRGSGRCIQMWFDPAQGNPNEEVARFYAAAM
Procedure details: ELISA on plate-coated recombinant human FOLR1 extracellular domain; anti-human IgG-HRP; O.D. 450 nm
Hi there, I'd appreciate the recorded EC50 (read off the curve) for every entry that follows.

IN: Can you look up the measured EC50 (read off the curve) of chimeric anti-FOLR1 mAb F17 (antibody, V domains shown, also called Chimeric mAb F17) VH: DVQLVESGGGLVQPGGSRKLSCAASGFTFSDFGMHWIRQAPERGLEWVAYMSYTPGTFHYADTVKDRFFISRDNAKNTLFLQMTSLRSDDTAMYYCARVHVGTVDYWGQGTSVTVSS VL: DVVLTQSPATLSVTPGDSVSLSCRASQNINNNLHWFQQKSHESPRLLIKYASQSISGIPSRFSGSGSGTDFTLSINNVETEDFGIYFCQQSNSWPALTFGTGTKVELK for me?
OUT: 0.1 to 0.2 nM

IN: Can you look up the measured EC50 (read off the curve) of chimeric anti-FOLR1 mAb F7 (antibody, V domains shown, also called Chimeric mAb F7) VH: EFQLQQSGPELVKPGASVKISCKASGYSFTDYNMNWVKQSNGKSLEWIGVIDPNYGTTNYNQKFVGKATLTVDQSSITAYMQLNSLTAEDSAVYFCAIKGYGNPAAYWGQGTLVTVSA VL: DIQMTQSPSSLSASLGGKVTITCKASQDINKYLAWYQHEPGKGPRLLIRYTSILESGIPSRFSGSGSGRDYSFSISNLEPEDIATYYCLQYYNLWTFGGGTKLEIK for me?
OUT: ~0.1 nM

Hey, just so you know, these numbers are from patent US20210002363A1.
